- SYSTEM NAME: mouse DOR (Mus musculus, UniProt P32300)
- Construct: expressed in transfected cells
- Sequence (P32300 whole entry): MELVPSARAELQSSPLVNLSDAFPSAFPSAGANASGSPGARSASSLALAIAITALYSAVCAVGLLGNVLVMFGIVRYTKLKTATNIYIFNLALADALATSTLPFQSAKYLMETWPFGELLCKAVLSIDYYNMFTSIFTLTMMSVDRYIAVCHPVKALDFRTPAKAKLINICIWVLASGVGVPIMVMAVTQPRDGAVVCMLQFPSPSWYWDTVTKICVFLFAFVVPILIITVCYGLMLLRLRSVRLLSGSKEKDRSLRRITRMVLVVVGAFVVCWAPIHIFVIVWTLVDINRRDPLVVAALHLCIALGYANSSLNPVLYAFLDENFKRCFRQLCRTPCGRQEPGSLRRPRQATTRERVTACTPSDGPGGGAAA
- EXPERIMENT DESCRIPTION: radioligand equilibrium competition binding, DOR
- EXPERIMENTAL CONTEXT: CHO cell membranes, [3H]DPDPE; mean ± SEM, at least three experiments (D-Nal(1′)^4 n = 2)
Square brackets hold non-standard residues; d marks the D form. Peptide text beside a SMILES is read from it. 1Nal = N[C@@H](Cc1cccc2ccccc12)C(=O)O; 2Nal = N[C@@H](Cc1ccc2ccccc2c1)C(=O)O; Bta = N[C@@H](Cc1csc2ccccc12)C(=O)O
List of Ki values.
Expressed in µM, but write only the number.

Reference set (2 entries):
Exam item: Would you kindly share the measured Ki for O=C1N[C@@H](Cc2ccccc2)C(=O)N2CCC[C@@H]2C(=O)N[C@@H](Cc2ccccc2)C(=O)N[C@H]1Cc1csc2ccccc12 [Bta^4, [Bta^4]CJ-15,208] (cyclo(F[dP]F[Bta])) ?
Marked response: 1.6

Exam item: Which Ki value is on record for O=C1N[C@@H](Cc2ccccc2)C(=O)N2CCC[C@@H]2C(=O)N[C@@H](Cc2ccccc2)C(=O)N[C@H]1Cc1ccc2ccccc2c1 [Nal(2′)^4, [Nal(2′)^4]CJ-15,208] (cyclo(F[dP]F[2Nal])) ?
Marked response: 3.3

Next:
Exam item: Quick one: Ki for O=C1N[C@@H](Cc2ccccc2)C(=O)N2CCC[C@@H]2C(=O)N[C@@H](Cc2ccccc2)C(=O)N[C@H]1Cc1cccc2ccccc12 [Nal(1′)^4, [Nal(1′)^4]CJ-15,208] (cyclo(F[dP]F[1Nal])) ?
Marked response: 1.92

* * *

- SYSTEM NAME: mouse DOR (Mus musculus, UniProt P32300)
- Construct: expressed in transfected cells
- EXPERIMENT DESCRIPTION: radioligand equilibrium competition binding, DOR
- EXPERIMENTAL CONTEXT: CHO cell membranes, [3H]DPDPE; mean ± SEM, at least three experiments (D-Nal(1′)^4 n = 2)
Square brackets hold non-standard residues; d marks the D form. Peptide text beside a SMILES is read from it. d1Nal = N[C@H](Cc1cccc2ccccc12)C(=O)O; d2Nal = N[C@H](Cc1ccc2ccccc2c1)C(=O)O; dBta = N[C@H](Cc1csc2ccccc12)C(=O)O
QUANTITY NAME: Ki

Some molecules with recorded Ki:
Exam item: Tell me the measured Ki of O=C1N[C@H](Cc2ccc3ccccc3c2)C(=O)N[C@@H](Cc2ccccc2)C(=O)N2CCC[C@@H]2C(=O)N[C@H]1Cc1ccccc1 [D-Nal(2′)^4, [D-Nal(2′)^4]CJ-15,208] (cyclo(F[dP]F[d2Nal])) , please.
Marked response: > 10 µM

Exam item: GET /values?readout=Ki&item= O=C1N[C@H](Cc2cccc3ccccc23)C(=O)N[C@@H](Cc2ccccc2)C(=O)N2CCC[C@@H]2C(=O)N[C@H]1Cc1ccccc1 [D-Nal(1′)^4, [D-Nal(1′)^4]CJ-15,208] (cyclo(F[dP]F[d1Nal]))
Marked response: > 10 µM

Continuing:
Exam item: Sample O=C1N[C@H](Cc2csc3ccccc23)C(=O)N[C@@H](Cc2ccccc2)C(=O)N2CCC[C@@H]2C(=O)N[C@H]1Cc1ccccc1 [D-Bta^4, [D-Bta^4]CJ-15,208] (cyclo(F[dP]F[dBta])) — what was its Ki?
Marked response: > 10 µM
